- system: Macrophage colony-stimulating factor 1 receptor (Homo sapiens)
- conditions: at 1 µM
Returns one of satisfied or not satisfied; satisfied when residual activity is >= 70%.

Some solved entries appear below for comparison.
O=C(c1ccccc1)c1ccc(N2CCOCC2)cc1O | satisfied
c1ccc(-c2cnc(Nc3ccc(OCCN4CCCC4)cc3)s2)cc1 | not satisfied
O=C1Nc2ccc(Cl)cc2/C1=C/c1cc(Cl)c(O)c(Cl)c1 | not satisfied
Nc1n[nH]c2nc3ccccc3nc12 | satisfied
Fc1ccc(-c2nc3n(c2-c2ccncc2)CCS3)cc1 | satisfied
NC(=O)c1ccc(-c2nc(-c3ccc4c(c3)OCCO4)c(-c3ccccn3)[nH]2)cc1 | satisfied
O=C1NC(=O)C(c2cn(CCCn3ccnc3)c3ccccc23)=C1Nc1ccccc1 | not satisfied
CCCC(=O)Oc1ccc2[nH]c(C(=O)c3cc4ccccc4[nH]3)cc2c1 | satisfied

Exam item: Confirm if residual activity reported for the compound `COc1cc2ncnc(Nc3cccc(Cl)c3)c2cc1OC` is 70% or above.
Marked response: satisfied

Exam item: Determine whether measured residual activity meets or exceeds 70% for `O=c1cc(N2CCOCC2)oc2c1ccc1ccccc12`
Marked response: satisfied

Exam item: Does `COc1cc2nccc(Oc3ccc(NC(=S)NC(=O)c4ccccc4C)cc3)c2cc1OC` have a reported residual activity of at least 70%?
Marked response: not satisfied

Exam item: Could you please find out whether `Nc1ncnc2c1c(-c1ccc(Oc3ccccc3)cc1)cn2C1CCCC1` has residual activity that meets 70% or exceeds it?
Marked response: not satisfied

Exam item: Check the entry `COc1ccc2c(c1)c(C1=C(c3c[nH]c4ccccc34)C(=O)NC1=O)cn2CCCN(C)C` : does residual activity equal or exceed 70%?
Marked response: not satisfied

Exam item: Identify whether the reported residual activity of the following compound is 70% or greater: `O=C1NC(=O)c2c1c1c3ccccc3[nH]c1n1cncc21`
Marked response: not satisfied

Exam item: Please tell me: is the compound `O=c1cc(N2CCOCC2)oc2c(-c3ccccc3)cccc12` at or over 70% in terms of residual activity?
Marked response: not satisfied

Exam item: Does `Cn1c2ccccc2c2c3c(c4c5ccccc5n(CCC#N)c4c21)CNC3=O` have a reported residual activity of at least 70%?
Marked response: not satisfied

Exam item: Test whether the compound `O=C1Cc2c([nH]c3ccc([N+](=O)[O-])cc23)-c2ccccc2N1` records residual activity of 70% or higher.
Marked response: not satisfied

Exam item: Hi, just wondering whether `O=C1C(Cl)=C(N2C(=O)CCC2=O)C(=O)c2ccccc21` shows residual activity of 70% or higher.
Marked response: satisfied

Exam item: # bool: residual activity of `O=C(Nc1ccc(Cl)cc1)c1ccccc1NCc1ccncc1` >= 70%
Marked response: not satisfied

Exam item: Is the recorded value of residual activity equal to or greater than 70% for this compound? `CC(C)[C@H](CO)Nc1nc(Nc2cc(N)cc(Cl)c2)c2ncn(C(C)C)c2n1`
Marked response: not satisfied

###

Overview of recorded residual activity for various compounds
- system: cAMP-dependent protein kinase catalytic subunit alpha (Homo sapiens)
- conditions: at 1 µM
Respond with the bare value in %.

Observe how each entry below is paired with its result.
CC(C)[C@H](CO)Nc1nc(Nc2cc(N)cc(Cl)c2)c2ncn(C(C)C)c2n1 | 93
O=c1cc(N2CCNCC2)oc2c(-c3ccccc3)cccc12 | 72
COc1cc2ncnc(Nc3cccc(Cl)c3)c2cc1OC | 111
O=C(CCCc1ccc(-c2ccccc2F)cc1)Nc1ccc(O)cc1 | 107
NC(=O)Nc1sc(-c2ccc(F)cc2)cc1C(N)=O | 92

Exam item: Looking for the measured residual activity of `COc1cc2nccc(Oc3ccc(NC(=O)Nc4cc(C)on4)c(Cl)c3)c2cc1OC` , can you help?
Marked response: 108

Exam item: # lookup: residual activity of `O=C1Nc2ccc(Cl)cc2/C1=C/c1cc(Cl)c(O)c(Cl)c1`
Marked response: 68

Exam item: # query: residual activity of entry `O=C1NC(=O)C(c2cn(CCCn3ccnc3)c3ccccc23)=C1Nc1ccccc1`
Marked response: 69

Exam item: Which residual activity is reported for this compound? `CC(C)(C)n1nc(Cc2cccc3ccccc23)c2c(N)ncnc21`
Marked response: 34

Exam item: Which measured residual activity value corresponds to `CCN(CC)CCNC(=O)c1c(C)[nH]c(/C=C2\C(=O)Nc3ccc(Cl)cc32)c1C` ?
Marked response: 81

Exam item: May I ask what residual activity has been recorded for `COc1cc2nccc(Oc3ccc(NC(=S)NC(=O)c4ccccc4C)cc3)c2cc1OC` ?
Marked response: 90

Exam item: Item `c1ccc(-c2cnc(Nc3ccc(OCCN4CCCC4)cc3)s2)cc1` has what recorded residual activity?
Marked response: 78

###

- system: Angiopoietin-1 receptor (Homo sapiens)
- conditions: at 10 µM
observed-property: residual activity

O=C1Nc2ccc(Cl)cc2/C1=C/c1cc(Cl)c(O)c(Cl)c1 | 51%
N#C/C(=C\c1ccc(O)c(O)c1)C(=O)NCc1ccccc1 | 71%
CSc1nc(-c2ccc(F)cc2)c(-c2ccnc(NC(C)c3ccccc3)c2)[nH]1 (centres undefined) | 41%

Shift focus to the following entry.
Exam item: Quick one: residual activity of `COc1cc2ncnc(Nc3cccc(Cl)c3)c2cc1OC` ?
Marked response: 83%

###

residual activity listing for selected compounds.
- system: Proto-oncogene tyrosine-protein kinase Src (Homo sapiens) (UniProt P12931)
- Sequence (P12931 2-536 limits assumed): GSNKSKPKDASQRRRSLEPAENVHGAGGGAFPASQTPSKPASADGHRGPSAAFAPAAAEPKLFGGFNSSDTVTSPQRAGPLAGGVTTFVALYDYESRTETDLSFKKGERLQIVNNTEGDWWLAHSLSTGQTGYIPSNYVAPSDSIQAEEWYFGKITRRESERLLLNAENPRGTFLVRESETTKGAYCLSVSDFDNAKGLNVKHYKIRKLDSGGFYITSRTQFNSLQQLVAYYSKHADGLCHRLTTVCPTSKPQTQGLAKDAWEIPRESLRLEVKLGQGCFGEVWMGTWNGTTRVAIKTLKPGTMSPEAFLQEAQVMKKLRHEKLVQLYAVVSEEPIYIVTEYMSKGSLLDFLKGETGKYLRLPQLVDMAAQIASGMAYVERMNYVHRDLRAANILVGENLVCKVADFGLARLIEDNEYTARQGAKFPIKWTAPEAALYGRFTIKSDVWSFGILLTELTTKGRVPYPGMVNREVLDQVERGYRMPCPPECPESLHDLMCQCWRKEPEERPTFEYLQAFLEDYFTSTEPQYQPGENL
- conditions: at 1 µM
Numbers only here, please. The scale is %.

The following compounds have reported results that may help.
O=C1NC(=O)c2c1c1c3ccccc3[nH]c1n1cncc21 | 100
CCCC(=O)Oc1ccc2[nH]c(C(=O)c3cc4ccccc4[nH]3)cc2c1 | 81
O=C1NC(=O)C(c2c[nH]c3ccccc23)=C1c1c[nH]c2ccccc12 | 98
O=C1Cc2c([nH]c3ccc([N+](=O)[O-])cc23)-c2ccccc2N1 | 53
NC(=O)Nc1sc(-c2ccc(F)cc2)cc1C(N)=O | 54

Exam item: Given the entry `Nc1ncnc2c1c(-c1ccc(Oc3ccccc3)cc1)cn2C1CCCC1` , report its measured residual activity.
Marked response: 5

Exam item: Item `COc1ccc(-c2cnc3c(-c4ccsc4)cnn3c2)cc1` has what recorded residual activity?
Marked response: 77

Exam item: Using the record for O=C(NC(NC(=S)Nc1ccc(F)c([N+](=O)[O-])c1)C(Cl)(Cl)Cl)C(c1ccccc1)c1ccccc1 (stereo not given) , report its residual activity.
Marked response: 98

Exam item: What value of measured residual activity is listed for `CC(C)(C)n1nc(Cc2cccc3ccccc23)c2c(N)ncnc21` ?
Marked response: 63

Exam item: // residual activity lookup, key: `COc1ccc(CNC(=O)Nc2ncc([N+](=O)[O-])s2)cc1`
Marked response: 60

###

- system: Ephrin type-B receptor 2 (Homo sapiens) (UniProt P29323)
- Sequence (P29323 whole entry): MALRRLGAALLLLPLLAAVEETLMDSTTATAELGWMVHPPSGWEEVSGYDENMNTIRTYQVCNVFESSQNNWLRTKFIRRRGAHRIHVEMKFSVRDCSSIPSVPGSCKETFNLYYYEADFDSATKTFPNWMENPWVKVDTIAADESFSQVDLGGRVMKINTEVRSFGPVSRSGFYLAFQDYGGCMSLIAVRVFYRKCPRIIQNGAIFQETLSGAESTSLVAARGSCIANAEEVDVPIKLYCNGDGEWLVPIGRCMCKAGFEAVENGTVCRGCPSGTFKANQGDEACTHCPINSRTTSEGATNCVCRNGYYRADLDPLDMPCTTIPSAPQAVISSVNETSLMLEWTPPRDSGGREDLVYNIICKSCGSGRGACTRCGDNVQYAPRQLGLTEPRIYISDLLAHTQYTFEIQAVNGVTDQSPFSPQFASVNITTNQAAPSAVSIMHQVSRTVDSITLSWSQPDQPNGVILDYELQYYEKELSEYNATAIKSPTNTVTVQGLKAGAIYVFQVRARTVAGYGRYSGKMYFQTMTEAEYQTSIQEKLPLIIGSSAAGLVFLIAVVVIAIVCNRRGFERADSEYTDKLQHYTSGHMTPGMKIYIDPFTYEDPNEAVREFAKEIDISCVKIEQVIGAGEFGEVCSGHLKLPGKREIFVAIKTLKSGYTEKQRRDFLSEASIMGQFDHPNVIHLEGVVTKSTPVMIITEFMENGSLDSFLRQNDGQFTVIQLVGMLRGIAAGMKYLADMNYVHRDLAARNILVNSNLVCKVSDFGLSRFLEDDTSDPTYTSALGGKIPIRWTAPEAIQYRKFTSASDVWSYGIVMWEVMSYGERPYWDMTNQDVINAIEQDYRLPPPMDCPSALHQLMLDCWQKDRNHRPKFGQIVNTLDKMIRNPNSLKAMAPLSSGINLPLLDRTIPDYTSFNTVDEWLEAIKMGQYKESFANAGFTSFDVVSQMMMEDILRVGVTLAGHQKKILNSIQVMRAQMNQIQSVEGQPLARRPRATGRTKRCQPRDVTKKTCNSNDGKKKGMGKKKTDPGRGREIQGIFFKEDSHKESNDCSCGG
- conditions: at 10 µM
Below is a list of entries, each paired with its recorded residual activity value.
Report the figure in % without appending any unit label.

NC(=O)Nc1sc(-c2ccc(F)cc2)cc1C(N)=O | 19
CC(C)[C@H](CO)Nc1nc(Nc2cc(N)cc(Cl)c2)c2ncn(C(C)C)c2n1 | 7
O=C(CCCc1ccc(-c2ccccc2F)cc1)Nc1ccc(O)cc1 | 112
CCCC(=O)Oc1ccc2[nH]c(C(=O)c3cc4ccccc4[nH]3)cc2c1 | 131
CC(C)(C)n1nc(Cc2cccc3ccccc23)c2c(N)ncnc21 | -1
O=C1Cc2c([nH]c3ccc([N+](=O)[O-])cc23)-c2ccccc2N1 | 107

Continue with the next compound.
Exam item: Record `Nc1ncnc2[nH]nc(Nc3ccc(F)cc3)c12` : what is its residual activity with Ephrin type-B receptor 2 (Homo sapiens) (UniProt P29323)?
Marked response: 9

###

Entries and their measured residual activity follow.
- system: Fibroblast growth factor receptor 2 (Homo sapiens) (UniProt P21802)
- Sequence (P21802 22-821 limits assumed): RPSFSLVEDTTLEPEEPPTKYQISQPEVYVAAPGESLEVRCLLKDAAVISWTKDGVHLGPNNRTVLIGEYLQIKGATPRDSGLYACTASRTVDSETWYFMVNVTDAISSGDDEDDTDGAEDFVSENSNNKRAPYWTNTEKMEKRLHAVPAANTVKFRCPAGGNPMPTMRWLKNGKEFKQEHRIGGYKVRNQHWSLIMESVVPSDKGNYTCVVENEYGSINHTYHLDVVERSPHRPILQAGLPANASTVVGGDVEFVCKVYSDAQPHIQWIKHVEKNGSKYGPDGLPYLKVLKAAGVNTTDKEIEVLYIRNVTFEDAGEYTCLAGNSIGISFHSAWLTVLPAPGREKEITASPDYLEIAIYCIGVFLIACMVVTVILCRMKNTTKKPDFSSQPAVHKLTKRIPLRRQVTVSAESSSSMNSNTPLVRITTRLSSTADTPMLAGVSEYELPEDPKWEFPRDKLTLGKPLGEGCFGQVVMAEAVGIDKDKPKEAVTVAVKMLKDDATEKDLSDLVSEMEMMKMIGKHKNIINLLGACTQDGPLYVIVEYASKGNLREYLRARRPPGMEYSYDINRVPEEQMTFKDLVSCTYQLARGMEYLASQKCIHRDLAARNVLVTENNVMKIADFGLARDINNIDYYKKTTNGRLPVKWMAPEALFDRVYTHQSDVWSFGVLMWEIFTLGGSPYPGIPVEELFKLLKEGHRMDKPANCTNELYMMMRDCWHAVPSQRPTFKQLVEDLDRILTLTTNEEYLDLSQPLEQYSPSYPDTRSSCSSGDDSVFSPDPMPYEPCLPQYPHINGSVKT
- conditions: at 10 µM
Kindly provide the numeric value in % only, without the unit symbol.

CCCCc1c(-c2ccc(O)cc2)[nH]c2nccnc12 | 59
Oc1cccc(-c2nc(N3CCOCC3)c3oc4ncccc4c3n2)c1 | 123
O=C(CCCc1ccc(-c2ccccc2F)cc1)Nc1ccc(O)cc1 | 99
O=C(NC(NC(=S)Nc1ccc(F)c([N+](=O)[O-])c1)C(Cl)(Cl)Cl)C(c1ccccc1)c1ccccc1 (stereo not given) | 73

Please look at the following molecule next.
Exam item: Look up residual activity for this molecule: `CCCC(=O)Oc1ccc2[nH]c(C(=O)c3cc4ccccc4[nH]3)cc2c1`
Marked response: 108

###

- system: Dual specificity tyrosine-phosphorylation-regulated kinase 2 (Homo sapiens) (UniProt Q92630)
- Sequence (Q92630 whole entry): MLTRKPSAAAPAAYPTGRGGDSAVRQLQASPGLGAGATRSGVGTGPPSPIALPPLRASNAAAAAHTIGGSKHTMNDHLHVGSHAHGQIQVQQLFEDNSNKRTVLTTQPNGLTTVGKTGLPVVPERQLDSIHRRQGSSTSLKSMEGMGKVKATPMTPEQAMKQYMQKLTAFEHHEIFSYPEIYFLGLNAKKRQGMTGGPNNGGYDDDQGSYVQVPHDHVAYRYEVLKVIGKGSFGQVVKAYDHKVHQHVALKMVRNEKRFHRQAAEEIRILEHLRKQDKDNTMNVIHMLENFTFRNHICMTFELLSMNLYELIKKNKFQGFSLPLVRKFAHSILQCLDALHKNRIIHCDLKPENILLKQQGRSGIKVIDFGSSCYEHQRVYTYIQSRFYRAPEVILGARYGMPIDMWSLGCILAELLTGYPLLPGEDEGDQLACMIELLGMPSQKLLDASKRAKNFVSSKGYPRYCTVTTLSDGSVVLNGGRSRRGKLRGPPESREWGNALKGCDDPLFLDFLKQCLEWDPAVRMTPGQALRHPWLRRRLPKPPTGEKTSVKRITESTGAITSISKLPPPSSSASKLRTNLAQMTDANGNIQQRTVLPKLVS
- conditions: at 1 µM
Lab note: anything with residual activity below 90% is marked YES; values at 90% or higher are marked NO.

O=C(CCCc1ccc(-c2ccccc2F)cc1)Nc1ccc(O)cc1 | NO

Exam item: Criterion: residual activity strictly below 90%. Is it met by `O=C(c1cc2cc(O)ccc2[nH]1)c1cc2cc(O)ccc2[nH]1` ?
Marked response: YES

Exam item: Please let me know if `Nc1nccc(-c2c(-c3ccc(F)cc3)ncn2C2CCNCC2)n1` shows residual activity below 90%.
Marked response: YES

Exam item: I wonder whether `Nc1ncnc2[nH]nc(Nc3ccc(F)cc3)c12` has residual activity below 90%. Can you tell?
Marked response: YES

Exam item: Determine if `O=c1cc(N2CCOCC2)oc2c1ccc1ccccc12` shows residual activity strictly lower than 90%.
Marked response: NO
